Readings of MIC for the listed compounds
System: Staphylococcus aureus
assay_procedure: In vitro antibacterial activity against Staphylococcus aureus
Format: functional
# value in µg/mL; strip the unit string

Prompt: For the compound shown here, COc1ccc(S(=O)(=O)N2CCN(c3ccc(N4C[C@H](CNC(C)=O)OC4=O)cc3F)CC2)cc1 , give the reported MIC.
Completion: 16

Continuing:
Prompt: For the compound shown here, CC(=O)NC[C@H]1CN(c2ccc(N3CCN(S(=O)(=O)c4ccccc4N)CC3)c(F)c2)C(=O)O1 , give the reported MIC.
Completion: 8

Prompt: For the compound shown here, CC(=O)NC[C@H]1CN(c2ccc(N3CCN(S(=O)(=O)c4ccc(C)cc4)CC3)c(F)c2)C(=O)O1 , give the reported MIC.
Completion: 128

Prompt: For the compound shown here, CC(=O)NC[C@H]1CN(c2ccc(N3CCN(S(C)(=O)=O)CC3)c(F)c2)C(=O)O1 , give the reported MIC.
Completion: 4

Prompt: For the compound shown here, CC(=O)NC[C@H]1CN(c2ccc(N3CCN(S(=O)(=O)c4cccc([N+](=O)[O-])c4)CC3)c(F)c2)C(=O)O1 , give the reported MIC.
Completion: 4

Prompt: For the compound shown here, CC(=O)NC[C@H]1CN(c2ccc(N3CCN(S(=O)(=O)c4cccc(N)c4)CC3)c(F)c2)C(=O)O1 , give the reported MIC.
Completion: 0.5

###

Tested on: Staphylococcus aureus
assay_procedure: In vitro antibacterial activity against Staphylococcus aureus
Assay type: functional
Readings of MIC for the listed compounds
# value in µg/mL; strip the unit string

Prompt: Recall the recorded MIC for CC(=O)NC[C@H]1CN(c2ccc(N3CCN(S(=O)(=O)c4cccs4)CC3)c(F)c2)C(=O)O1 with Staphylococcus aureus and state it.
Completion: 16

Continuing:
Prompt: Recall the recorded MIC for CC(=O)NC[C@H]1CN(c2ccc(N3CCN(S(=O)(=O)c4ccccc4)CC3)c(F)c2)C(=O)O1 with Staphylococcus aureus and state it.
Completion: 4

Prompt: Recall the recorded MIC for CC(=O)NC[C@H]1CN(c2ccc(N3CCN(S(=O)(=O)c4ccc(N)cc4)CC3)c(F)c2)C(=O)O1 with Staphylococcus aureus and state it.
Completion: 16

Prompt: Recall the recorded MIC for CC(=O)NC[C@H]1CN(c2ccc(N3CCN(S(=O)(=O)c4ccc([N+](=O)[O-])cc4)CC3)c(F)c2)C(=O)O1 with Staphylococcus aureus and state it.
Completion: 128

###

Tested on: Staphylococcus aureus
assay_procedure: In vitro antibacterial activity against Staphylococcus aureus
Assay type: functional
Readings of MIC for the listed compounds
# value in µg/mL; strip the unit string

Prompt: For the compound shown here, CC(=O)NC[C@H]1CN(c2ccc(N3CCN(S(=O)(=O)c4ccccc4[N+](=O)[O-])CC3)c(F)c2)C(=O)O1 , give the reported MIC.
Completion: 8

Continuing:
Prompt: For the compound shown here, CC(=O)NC[C@H]1CN(c2ccc(N3CCN(S(=O)(=O)c4ccc(NC(C)=O)cc4)CC3)c(F)c2)C(=O)O1 , give the reported MIC.
Completion: 32

###

Tested on: Staphylococcus epidermidis
assay_procedure: In vitro antibacterial activity against Staphylococcus epidermidis
Type: functional
readout_label: MIC (µg/mL)
# value in µg/mL; strip the unit string

Prompt: For the compound shown here, CC(=O)NC[C@H]1CN(c2ccc(N3CCN(S(=O)(=O)c4cccc(N)c4)CC3)c(F)c2)C(=O)O1 , give the reported MIC.
Completion: 0.25

Prompt: For the compound shown here, CC(=O)NC[C@H]1CN(c2ccc(N3CCN(S(=O)(=O)c4ccc(C)cc4)CC3)c(F)c2)C(=O)O1 , give the reported MIC.
Completion: 4

Prompt: For the compound shown here, CC(=O)NC[C@H]1CN(c2ccc(N3CCN(S(=O)(=O)c4ccc(Br)cc4)CC3)c(F)c2)C(=O)O1 , give the reported MIC.
Completion: 128

Prompt: For the compound shown here, CC(=O)NC[C@H]1CN(c2ccc(N3CCN(S(=O)(=O)c4ccccc4[N+](=O)[O-])CC3)c(F)c2)C(=O)O1 , give the reported MIC.
Completion: 4

Prompt: For the compound shown here, COc1ccc(S(=O)(=O)N2CCN(c3ccc(N4C[C@H](CNC(C)=O)OC4=O)cc3F)CC2)cc1 , give the reported MIC.
Completion: 0.5

Prompt: For the compound shown here, CC(=O)NC[C@H]1CN(c2ccc(N3CCN(S(=O)(=O)c4cccc([N+](=O)[O-])c4)CC3)c(F)c2)C(=O)O1 , give the reported MIC.
Completion: 0.25

Prompt: For the compound shown here, CC(=O)NC[C@H]1CN(c2ccc(N3CCOCC3)c(F)c2)C(=O)O1 , give the reported MIC.
Completion: 0.5

###

System: Streptococcus pneumoniae
assay_procedure: In vitro antibacterial activity against Streptococcus pneumoniae
Format: functional
Readings of MIC for the listed compounds
# value in µg/mL; strip the unit string

Prompt: For the compound shown here, CC(=O)NC[C@H]1CN(c2ccc(N3CCN(S(=O)(=O)c4ccc(N)cc4)CC3)c(F)c2)C(=O)O1 , give the reported MIC.
Completion: 16

Prompt: For the compound shown here, CC(=O)NC[C@H]1CN(c2ccc(N3CCN(S(=O)(=O)c4cccc(N)c4)CC3)c(F)c2)C(=O)O1 , give the reported MIC.
Completion: 1

Prompt: For the compound shown here, CC(=O)NC[C@H]1CN(c2ccc(N3CCN(S(=O)(=O)c4cccs4)CC3)c(F)c2)C(=O)O1 , give the reported MIC.
Completion: 4

Prompt: For the compound shown here, COc1ccc(S(=O)(=O)N2CCN(c3ccc(N4C[C@H](CNC(C)=O)OC4=O)cc3F)CC2)cc1 , give the reported MIC.
Completion: 8

Prompt: For the compound shown here, CC(=O)NC[C@H]1CN(c2ccc(N3CCN(S(=O)(=O)c4ccc(NC(C)=O)cc4)CC3)c(F)c2)C(=O)O1 , give the reported MIC.
Completion: 32

Prompt: For the compound shown here, CC(=O)NC[C@H]1CN(c2ccc(N3CCN(S(=O)(=O)c4ccccc4[N+](=O)[O-])CC3)c(F)c2)C(=O)O1 , give the reported MIC.
Completion: 8

Prompt: For the compound shown here, CC(=O)NC[C@H]1CN(c2ccc(N3CCN(S(=O)(=O)c4ccccc4N)CC3)c(F)c2)C(=O)O1 , give the reported MIC.
Completion: 2

###

Test system: Staphylococcus epidermidis
assay_procedure: In vitro antibacterial activity against Staphylococcus epidermidis
Type: functional
Readings of MIC for the listed compounds
# value in µg/mL; strip the unit string

Prompt: For the compound shown here, CC(=O)NC[C@H]1CN(c2ccc(N3CCN(S(=O)(=O)c4ccc([N+](=O)[O-])cc4)CC3)c(F)c2)C(=O)O1 , give the reported MIC.
Completion: 8

Continuing:
Prompt: For the compound shown here, CC(=O)NC[C@H]1CN(c2ccc(N3CCN(S(=O)(=O)c4ccccc4N)CC3)c(F)c2)C(=O)O1 , give the reported MIC.
Completion: 4

Prompt: For the compound shown here, CC(=O)NC[C@H]1CN(c2ccc(N3CCN(S(=O)(=O)c4ccc(N)cc4)CC3)c(F)c2)C(=O)O1 , give the reported MIC.
Completion: 0.25

Prompt: For the compound shown here, CC(=O)NC[C@H]1CN(c2ccc(N3CCN(S(=O)(=O)c4ccccc4)CC3)c(F)c2)C(=O)O1 , give the reported MIC.
Completion: 0.25

Prompt: For the compound shown here, CC(=O)NC[C@H]1CN(c2ccc(N3CCN(S(C)(=O)=O)CC3)c(F)c2)C(=O)O1 , give the reported MIC.
Completion: 0.5

Prompt: For the compound shown here, CC(=O)NC[C@H]1CN(c2ccc(N3CCN(S(=O)(=O)c4cccs4)CC3)c(F)c2)C(=O)O1 , give the reported MIC.
Completion: 4

Prompt: For the compound shown here, CC(=O)NC[C@H]1CN(c2ccc(N3CCN(S(=O)(=O)c4ccc(NC(C)=O)cc4)CC3)c(F)c2)C(=O)O1 , give the reported MIC.
Completion: 1

###

System: Streptococcus pneumoniae
assay_procedure: In vitro antibacterial activity against Streptococcus pneumoniae
Type: functional
readout_label: MIC

Prompt: Recall the recorded MIC for CC(=O)NC[C@H]1CN(c2ccc(N3CCN(S(=O)(=O)c4ccccc4NC(C)=O)CC3)c(F)c2)C(=O)O1 with Streptococcus pneumoniae and state it.
Completion: > 64 µg/mL

Prompt: Recall the recorded MIC for CC(=O)NC[C@H]1CN(c2ccc(N3CCN(S(=O)(=O)c4cccc(NC(C)=O)c4)CC3)c(F)c2)C(=O)O1 with Streptococcus pneumoniae and state it.
Completion: > 128 µg/mL

Prompt: Recall the recorded MIC for CC(=O)NC[C@H]1CN(c2ccc(N3CCN(S(=O)(=O)c4ccc(C)cc4)CC3)c(F)c2)C(=O)O1 with Streptococcus pneumoniae and state it.
Completion: > 128 µg/mL

Prompt: Recall the recorded MIC for CC(=O)NC[C@H]1CN(c2ccc(N3CCN(S(=O)(=O)c4ccc(Br)cc4)CC3)c(F)c2)C(=O)O1 with Streptococcus pneumoniae and state it.
Completion: > 128 µg/mL

Prompt: Recall the recorded MIC for CC(=O)NC[C@H]1CN(c2ccc(N3CCN(S(=O)(=O)c4ccc([N+](=O)[O-])cc4)CC3)c(F)c2)C(=O)O1 with Streptococcus pneumoniae and state it.
Completion: 128 µg/mL

Continuing:
Prompt: Recall the recorded MIC for CC(=O)NC[C@H]1CN(c2ccc(N3CCN(S(C)(=O)=O)CC3)c(F)c2)C(=O)O1 with Streptococcus pneumoniae and state it.
Completion: 2 µg/mL

Prompt: Recall the recorded MIC for CC(=O)NC[C@H]1CN(c2ccc(N3CCN(S(=O)(=O)c4ccccc4)CC3)c(F)c2)C(=O)O1 with Streptococcus pneumoniae and state it.
Completion: 2 µg/mL

Prompt: Recall the recorded MIC for CC(=O)NC[C@H]1CN(c2ccc(N3CCN(S(=O)(=O)c4cccc([N+](=O)[O-])c4)CC3)c(F)c2)C(=O)O1 with Streptococcus pneumoniae and state it.
Completion: 1 µg/mL
